Source of measurements: PubChem BioAssay AID1259407

test system: CCRIS mutagenicity, Ames/micronucleus/aberration tests; assay: CCRIS mutagenicity studies; conditions: Test System: AMES SALMONELLA TYPHIMURIUM; Strain/Indicator: TA1535; Metabolic Activation: RAT, LIVER, S-9, AROCLOR 1254 (10%); Method: PREINCUBATION
Calls of active or inactive are those of the source. No rule for the calls is given here.
// allowed return values: class 1 (active), class 0 (inactive)

CC(C)NC(C)C    class 0
Nc1ccc(N)c2ccccc12    class 0
O=C(O)c1ccccc1C(=O)O    class 0
CN(C)c1ccc(N(C)C)cc1    class 0

Input line: Hi, sorry to bother you, what did the test record for COC(=O)C(c1ccccc1)C1CCCCN1 (stereo not given) ?
Output line: class 0

Input line: Hi, sorry to bother you, what did the test record for `Oc1c(Br)cc(Br)cc1Br` ?
Output line: class 0

Input line: Hi, sorry to bother you, what did the test record for `COC(=O)c1ccc(C(=O)OC)cc1` ?
Output line: class 0

Input line: Hi, sorry to bother you, what did the test record for `OC/C(Br)=C(\Br)CO` ?
Output line: class 1

Input line: Hi, sorry to bother you, what did the test record for NC(Cc1ccc(F)cc1)C(=O)O (stereo not given) ?
Output line: class 0

Input line: Hi, sorry to bother you, what did the test record for `CCCCCN` ?
Output line: class 0

Input line: Hi, sorry to bother you, what did the test record for `CC(=O)[O][Hg][c]1ccccc1` ?
Output line: class 0

Input line: Hi, sorry to bother you, what did the test record for `ClCCCl` ?
Output line: class 1

###

system: CCRIS mutagenicity, Ames/micronucleus/aberration tests; test: CCRIS mutagenicity studies; conditions: Test System: AMES SALMONELLA TYPHIMURIUM; Strain/Indicator: TA98; Metabolic Activation: RAT, LIVER, S-9, AROCLOR 1254 (30%); Method: PREINCUBATION
The source made the active and inactive calls. No rule for the calls is given here.
// allowed return values: active, inactive

Input line: Hi, sorry to bother you, what did the test record for `CC(=O)CC(C)C` ?
Output line: inactive

Input line: Hi, sorry to bother you, what did the test record for `O=C(O)CNC(=O)c1ccc([N+](=O)[O-])cc1` ?
Output line: inactive

###

Test system: CCRIS mutagenicity, Ames/micronucleus/aberration tests
Assay: CCRIS mutagenicity studies
Conditions: Test System: AMES SALMONELLA TYPHIMURIUM; Strain/Indicator: TA98(NR); Metabolic Activation: NONE
From the text: The CCRIS database contains chemical records with carcinogenicity, mutagenicity, tumor promotion, and tumor inhibition test results. It was developed by the National Cancer Institute (NCI). Data are derived from studies cited in primary journals, current awareness tools, NCI reports, and other sources. Test results have been reviewed by experts in carcinogenesis and mutagenesis. CCRIS provides historical information from the years 1985 - 2011. It is no longer updated. […]
The source made the active and inactive calls. How the calls were made is not given here.
// allowed return values: t (active), f (inactive)

Solved cases below.
O=[N+]([O-])c1ccc2c3c(ccc([N+](=O)[O-])c13)-c1ccccc1-2    t
O=[N+]([O-])c1cc2ccc3cccc4ccc(c1)c2c34    t
O=[N+]([O-])c1ccc(-c2ccccc2)cc1    f

Next:
Input line: Hi, sorry to bother you, what did the test record for `O=[N+]([O-])c1ccc2ccc3c4ccccc4c([N+](=O)[O-])c4ccc1c2c43` ?
Output line: t

###

tested on: CCRIS mutagenicity, Ames/micronucleus/aberration tests; assay: CCRIS mutagenicity studies; conditions: Test System: AMES SALMONELLA TYPHIMURIUM; Strain/Indicator: TA100(NR); Metabolic Activation: NONE; Method: STANDARD PLATE
The source made the active and inactive calls. No rule for the calls is given here.
// allowed return values: yes for active, no for inactive

O=C1NCCN1c1ncc([N+](=O)[O-])s1    no

Next:
Input line: Hi, sorry to bother you, what did the test record for `COc1ccc(N(CCCl)CCCl)c2cc([N+](=O)[O-])oc12` ?
Output line: no

###

system: CCRIS mutagenicity, Ames/micronucleus/aberration tests; test: CCRIS mutagenicity studies; settings: Test System: MOUSE LYMPHOMA; Strain/Indicator: L5178Y (TK+/TK-); Metabolic Activation: NONE; Method: SUSPENSION/PLATE
Calls of active or inactive are those of the source. How the calls were made is not given here.
// allowed return values: active, inactive

Solved cases below.
Nc1ncnc2c1ncn2[C@H]1CC[C@@H](CO)O1    active
Cc1c2ccncc2c(C)c2c1[nH]c1ccccc12    active

Input line: Hi, sorry to bother you, what did the test record for `Cc1ccc(NCCO)cc1O` ?
Output line: inactive

Input line: Hi, sorry to bother you, what did the test record for `Nc1ncc2[nH]cnc2n1` ?
Output line: active

###

system: CCRIS mutagenicity, Ames/micronucleus/aberration tests; assay: CCRIS mutagenicity studies; conditions: Test System: AMES SALMONELLA TYPHIMURIUM; Strain/Indicator: TA1535; Metabolic Activation: RAT, LIVER, S-9, AROCLOR 1254 (10%); Method: PREINCUBATION
Activity calls are given as the source filed them. No rule for the calls is given here.
// allowed return values: active, inactive

Solved cases below.
CCCCCCC(=O)O    inactive
O=C(Cl)c1ccccc1[N+](=O)[O-]    inactive
Cc1ccc(S(=O)(=O)O)cc1C    inactive
COC[CH2][Hg][Cl]    inactive
Cc1cc(-c2ccc(N)c(C)c2)ccc1N    inactive
CCCCNCC    inactive
ClCc1ccccc1    inactive
C=CC(=O)OC    inactive

Next:
Input line: Hi, sorry to bother you, what did the test record for OCC(O)CCl (centres undefined) ?
Output line: active

###

tested on: CCRIS mutagenicity, Ames/micronucleus/aberration tests; assay: CCRIS mutagenicity studies; settings: Test System: E. COLI; Strain/Indicator: WP2 UVRA; Metabolic Activation: NONE; Method: STANDARD PLATE
Active and inactive are the calls of the source. No rule for the calls is given here.
// allowed return values: 1 (active), 0 (inactive)

Input line: Hi, sorry to bother you, what did the test record for `N=NCO` ?
Output line: 1

Input line: Hi, sorry to bother you, what did the test record for O=CC1CO1 (centres undefined) ?
Output line: 1

Input line: Hi, sorry to bother you, what did the test record for `N=NCCCO` ?
Output line: 1

###

test system: CCRIS mutagenicity, Ames/micronucleus/aberration tests; assay: CCRIS mutagenicity studies; details: Test System: AMES SALMONELLA TYPHIMURIUM; Strain/Indicator: TA1535; Metabolic Activation: NONE; Method: PREINCUBATION
Active and inactive are the calls of the source. No rule for the calls is given here.
// allowed return values: True for active, False for inactive

Solved cases below.
c1ccc(CC2CO2)cc1 (stereo not given)    True
NC(=O)c1ccccc1O    False
CCNNCC    False
CCCCOCCOCCSC#N    False
CN(C)N    False

Input line: Hi, sorry to bother you, what did the test record for `[Cl][Ni][Cl]` ?
Output line: False

Input line: Hi, sorry to bother you, what did the test record for `Oc1ccc(Cl)c(Cl)c1Cl` ?
Output line: False

###

system: CCRIS mutagenicity, Ames/micronucleus/aberration tests; assay: CCRIS mutagenicity studies; conditions: Test System: AMES SALMONELLA TYPHIMURIUM; Strain/Indicator: TA104; Metabolic Activation: NONE; Method: PREINCUBATION
Active and inactive are the calls of the source. The rule behind the calls is not given here.
// allowed return values: active, inactive

Solved cases below.
O=C(O)C(=O)O    inactive
ClCc1ccc(Cl)cc1    inactive
C/C=C/C=C/C=O    active

Input line: Hi, sorry to bother you, what did the test record for `O[C@@H]1[C@H]2O[C@H]2c2c(ccc3c4ccccc4c4ccccc4c23)[C@H]1O` ?
Output line: active

Input line: Hi, sorry to bother you, what did the test record for `CCNNCC` ?
Output line: inactive

Input line: Hi, sorry to bother you, what did the test record for `O=C(O)c1ccccc1C(=O)O` ?
Output line: inactive

Input line: Hi, sorry to bother you, what did the test record for `O=S(O)CO` ?
Output line: inactive

Input line: Hi, sorry to bother you, what did the test record for `Oc1cc(O)c2ccccc2c1` ?
Output line: active

Input line: Hi, sorry to bother you, what did the test record for CCOC(C)C(=O)C(O)O (configuration not stated) ?
Output line: active

Input line: Hi, sorry to bother you, what did the test record for `C[N+](C)(C)CCO` ?
Output line: inactive

Input line: Hi, sorry to bother you, what did the test record for `O=C(Cl)c1ccc(C(=O)Cl)cc1` ?
Output line: active

###

test system: CCRIS mutagenicity, Ames/micronucleus/aberration tests; assay: CCRIS mutagenicity studies; conditions: Test System: AMES SALMONELLA TYPHIMURIUM; Strain/Indicator: TA100; Metabolic Activation: HAMSTER, LIVER, S-9, AROCLOR 1254 (10%); Method: PREINCUBATION
Active and inactive are the calls of the source. No rule for the calls is given here.
reported_endpoint: mutagenic call

Some solved entries appear below for comparison.
CN(C)/N=N/c1nc[nH]c1C(N)=O    active; positive
Cc1c(N)cccc1N    active; positive
Cc1ccc(NC(N)=O)cc1    inactive; negative
NS(=O)(=O)c1cc(C(=O)O)c(NCc2ccco2)cc1Cl    inactive; negative
CC(CCl)OP(=O)(OC(C)CCl)OC(C)CCl (stereo not given)    inactive; negative
COC(=O)C(c1ccccc1)C1CCCCN1 (stereo not given)    inactive; negative
CCc1cc(C(N)=S)ccn1    inactive; negative
CCCCCCCC/C=C/CCCCCCCC(=O)OCCOCC(OCCO)C1OCC(OCCO)C1OCCO (stereo not given)    inactive; negative

Input line: So what's the measured mutagenic call for this one? `Nc1cc(Cl)c([N+](=O)[O-])cc1O`
Output line: active; positive

Input line: So what's the measured mutagenic call for this one? `CC(=O)CC(C)C`
Output line: inactive; negative

Input line: So what's the measured mutagenic call for this one? `O=C1c2c(O)ccc([N+](=O)[O-])c2C(=O)c2c([N+](=O)[O-])ccc(O)c21`
Output line: active; positive

Input line: So what's the measured mutagenic call for this one? `CCCCCCCCCCCCCCCCCC[N+](C)(C)Cc1ccccc1`
Output line: inactive; negative

Input line: So what's the measured mutagenic call for this one? NC(Cc1ccc(F)cc1)C(=O)O (stereo not given)
Output line: inactive; negative

Input line: So what's the measured mutagenic call for this one? `COc1ccc(C(=O)Nc2ccccc2)cc1[N+](=O)[O-]`
Output line: active; positive

Input line: So what's the measured mutagenic call for this one? `Nc1ccccc1Cl`
Output line: inactive; negative

Input line: So what's the measured mutagenic call for this one? `CC(C)NC(C)C`
Output line: inactive; negative

Input line: So what's the measured mutagenic call for this one? `CC(=O)NS(=O)(=O)c1ccc(N)cc1`
Output line: inactive; negative
